// reported folding stability dG per item
B1: 1ZHC (parent)
chain: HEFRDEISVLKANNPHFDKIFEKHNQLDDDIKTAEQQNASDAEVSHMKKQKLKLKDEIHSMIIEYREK

Variants of: B1
assayName: folding stability dG (cDNA display proteolysis); higher = more stable
conditionContext: PBS, room temperature

{"columns": ["change", "folding stability dG (kcal/mol)"],
 "data": [
  ["D41N", 0.532],
  ["F21I", 0.372],
  ["F3L", 1.04],
  ["K53S", 0.351],
  ["E2F", 0.966],
  ["Q36Y", 0.632],
  ["F3H", 0.635],
  ["Q26W", -0.614],
  ["N25R", 1.59],
  ["E43D", 1.26],
  ["T33K", 1.43],
  ["S8C", 1.67],
  ["V9R", 1.01],
  ["I20Y", -0.117],
  ["E67S", 1.04],
  ["A12V", 0.253],
  ["K19S", 0.513],
  ["D5W", 1.47],
  ["E64F", 0.527],
  ["P15H", 0.38],
  ["I63R", 0.974],
  ["R66K", 0.404],
  ["K48A", 0.086],
  ["S40H", 0.256],
  ["K49R", 1.03],
  ["D28K", 0.414],
  ["T33Q", 1.02],
  ["H1A", 0.874],
  ["E2W", 1.66],
  ["Y65F", 1.01],
  ["A12T", 0.659],
  ["Q26R", 1.28],
  ["D29C", 1.17],
  ["S8E", 1.32],
  ["E57R", -0.034],
  ["N13Y", 0.635],
  ["Q50G", -0.255],
  ["D5V", 0.719],
  ["I58R", -0.534],
  ["K49A", 1.29],
  ["F21W", 1.79],
  ["A42R", -0.079],
  ["D56W", 1.39],
  ["F21S", 0.151],
  ["F3S", 0.019],
  ["N14Y", 0.963]
]}
